- Tested on: UACC-257 melanoma
- protocol.text: NCI tumour cell line growth inhibition, 48 h
Entry flag: 1 if TGI reaches 30 µM; -1 if it does not.

A selection of reference data follows.
INSERT INTO assay_data (compound, cat) VALUES
  ('CN(C)c1ccc(/C=C2\N=C(c3ccccc3)N(c3nc4ccc(Sc5ccccc5)cc4[nH]3)C2=O)cc1', 1),
  ('C[N+](C)([O-])C12CC3CC(CC(C3)C1)C2', 1),
  ('C=C(/C=C/C=C(\CO)CCC=C(C)C)[C@H]1CCC2([C@H](CCCO)/C(=C(/C)C=O)CC[C@]2(C)O)[C@H]1O (stereo not given in full)', 1),
  ('COc1ccc(N=C2C(=O)Nc3ccc(Br)cc32)cc1', 1),
  ('O=C(CC/C(CC(=O)c1ccc(Cl)cc1)=N\O)Nc1cccc(Cl)c1', 1);

Exercise: State whether the measured TGI reaches 30 µM, counting equality as reaching it, for COc1cc(C(=O)/C=C/c2c(C)n([O-])c3ccc(Cl)cc3[n+]2=O)cc(OC)c1OC
Key: 1

Exercise: Is reported TGI greater than or equal to 30 µM here: Cc1cc(C)n(C(=CC(=O)C(Cl)Cl)n2nc(C)cc2C)n1
Key: -1

Exercise: Entry Cc1c(C)c2c(c(N)c1C#N)C(=O)N(NC(=S)Nc1ccccc1)C2=O : is its TGI no less than 30 µM?
Key: 1

Exercise: Say whether O=[N+]([O-])C(/C=C(\Cl)[N+](=O)[O-])=C(Nc1ccccc1)Nc1ccccc1 shows TGI of 30 µM or more.
Key: -1

Exercise: Answer whether TGI of O=C(O)c1cc2ccc(Cl)cc2c(O)c1C1=CCCCC1 is greater than or equal to 30 µM.
Key: 1
